Origin of measurements: patent EP2181998B1

Test system: Mycobacterium smegmatis SG 987
Format: cell-based
condition notes: Mycolicibacterium smegmatis, SG987, read-out: MIC M. smegmatis
measurement kind: MIC (µg/mL)
Dear colleague, please return just the value in µg/mL, with no unit written.

INSERT INTO results (molecule, measurement_kind, endpoint_result) VALUES
  ('Cc1c([N+](=O)[O-])cc2c(=O)nc(N3CCC4(CC3)OCCO4)sc2c1[N+](=O)[O-]', 'MIC', 0.4),
  ('O=c1nc(N2CCC3(CC2)OCCCCO3)sc2c([N+](=O)[O-])cc([N+](=O)[O-])cc12', 'MIC', 0.78),
  ('CC1COC2(CCN(c3nc(=O)c4cc([N+](=O)[O-])cc([N+](=O)[O-])c4s3)CC2)O1 (stereo not shown)', 'MIC', 0.2);

Read the next record carefully.
[ask] Identify the measured MIC of `O=c1nc(N2CCC3(CC2)OCCO3)sc2c([N+](=O)[O-])cc([N+](=O)[O-])cc12` for Mycobacterium smegmatis SG 987.
[reply] 0.2

---

test method notes: in vivo
condition notes: mouse
measurement kind: LD50

[ask] Item CC1COC2(CCN(c3nc(=O)c4cc(C(F)(F)F)cc([N+](=O)[O-])c4s3)CC2)O1 (stereo not shown) [Compound 2] has what recorded LD50?
[reply] > 2000 mg/kg

---

System: Mycobacterium tuberculosis H37Rv and clinical isolates 6341 and 6374
test method notes: MIC and MBC, classical method, over several strains
Type: cell-based
condition notes: read-out: MIC (µg/mL) mean
Label Condition met when MIC is strictly below 0.5 µg/mL; otherwise label Condition not met.

INSERT INTO measurements (molecule, group) VALUES
  ('O=c1nc(N2CCC3(CC2)OCCO3)sc2c([N+](=O)[O-])cc(C(F)(F)F)cc12 [Compound 1]', 'Condition not met'),
  ('CC1OC2(CCN(c3nc(=O)c4cc(C(F)(F)F)cc([N+](=O)[O-])c4s3)CC2)OC1C (centres unmarked) [Compound 5]', 'Condition met');

[ask] I wonder whether CC1COC2(CCN(c3nc(=O)c4cc(C(F)(F)F)cc([N+](=O)[O-])c4s3)CC2)O1 (centres unmarked) [Compound 2] has MIC below 0.5 µg/mL. Can you tell?
[reply] Condition met

[ask] I wonder whether CC1COC2(CCN(c3nc(=O)c4cc(C#N)cc([N+](=O)[O-])c4s3)CC2)O1 (centres unmarked) [Compound 10] has MIC below 0.5 µg/mL. Can you tell?
[reply] Condition met

[ask] I wonder whether N#Cc1cc([N+](=O)[O-])c2sc(N3CCC4(CC3)OCCO4)nc(=O)c2c1 [Compound 9] has MIC below 0.5 µg/mL. Can you tell?
[reply] Condition not met

---

The reader will find reported MBC values listed item by item below.
Test system: Mycobacterium tuberculosis clinical isolate 6374
Assay type: cell-based

Here is how some compounds turned out for MBC.
INSERT INTO measurements (compound, endpoint_result) VALUES
  ('O=c1nc(N2CCC3(CC2)OCCO3)sc2c([N+](=O)[O-])cc(C(F)(F)F)cc12', '2.34 µg/mL'),
  ('NNC(=O)c1ccncc1 [Isoniazid (INH), Isoniazid, reference compound]', '> 100 µg/mL'),
  ('CC1COC2(CCN(c3nc(=O)c4cc(C(F)(F)F)cc([N+](=O)[O-])c4s3)CC2)O1 (stereo not drawn)', '0.39 µg/mL'),
  ('CC1COC2(CCN(c3nc(=O)c4cc(C#N)cc([N+](=O)[O-])c4s3)CC2)O1 (stereo not drawn)', '0.78 µg/mL');

[ask] Item CC1OC2(CCN(c3nc(=O)c4cc(C(F)(F)F)cc([N+](=O)[O-])c4s3)CC2)OC1C (stereo not drawn) has what recorded MBC?
[reply] 0.39 µg/mL

[ask] Item `N#Cc1cc([N+](=O)[O-])c2sc(N3CCC4(CC3)OCCO4)nc(=O)c2c1` has what recorded MBC?
[reply] 0.78 µg/mL
